tested on: HSV-1; experiment: HSV Antiviral (ELISA) Assay; assay type: cell-based, herpes simplex virus type 1; settings: Human alphaherpesvirus 1; Vero cells, HSV-1, about 24 hours post-infection; read-out: IC50 (ug/ml) HSV
Listed molecules paired with reported IC50
observationType: IC50 (µg/mL)

| substanceSmiles | observationType | unitsLabel | valueQualifier | endpointResult |
| --- | --- | --- | --- | --- |
| COc1cc(OC)c(NC(=S)Nc2cccnc2NC(=O)c2csnn2)cc1Cl | IC50 | µg/mL | = | 6 |
| COc1cc(OC)c(NC(=S)Nc2ccc(NC(=O)c3ccccc3F)nc2)cc1Cl | IC50 | µg/mL | = | 0.6 |
| COc1cc(OC)c(NC(=S)Nc2ccc(NC(=O)c3ccco3)cn2)cc1Cl | IC50 | µg/mL | = | 0.5 |
| O=C(Nc1ccc(NC(=S)Nc2cc(Cl)cc(Cl)c2)cn1)c1csnn1 | IC50 | µg/mL | > | 10 |
| COc1cc(OC)c(NC(=S)Nc2cccnc2NC(=O)c2ccco2)cc1Cl | IC50 | µg/mL | = | 3 |

src = patent US6403617B1
